We begin with a simple list: items and their reported Kd.
Biological target: T1, H. sapiens SUV39H2 catalytic subunit (amino acids 162 to 410) (H. sapiens, UniProt Q9H5I1 162-410)
T1 construct: Plasmid from Addgene (gift of Cheryl Arrowsmith); The tag is surmised from the nickel column purification; also called KMT1B; source: Rosetta E. coli, purified (HisTrap FF nickel column, dialysis)
T1 sequence (Q9H5I1 162-410): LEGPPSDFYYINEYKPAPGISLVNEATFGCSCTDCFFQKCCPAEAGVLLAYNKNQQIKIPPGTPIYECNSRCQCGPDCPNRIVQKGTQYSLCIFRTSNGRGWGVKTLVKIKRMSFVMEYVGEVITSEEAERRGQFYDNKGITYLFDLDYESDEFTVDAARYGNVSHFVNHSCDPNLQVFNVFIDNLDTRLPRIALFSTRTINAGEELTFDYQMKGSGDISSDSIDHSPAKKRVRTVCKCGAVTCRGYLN
Experiment: fluorescence polarisation; enzyme titrated (0-10 uM, monomeric) against a fixed 20-100 nM of N-terminus 5-FAM labeled H3(1-17) peptide, with 100 uM SAH; 50 mM HEPES pH 7.9, 2 mM MgCl2, 0.5 mM DTT, 0.1 mM AEBSF, 0.01% Triton X-100, 10% glycerol; 10 min at 25 °C; one site specific binding fit
Settings: both partners purified
*: point of attachment. 5FAM = O=C1OC2(c3ccc(O)cc3Oc3cc(O)ccc32)c2ccc(C(=O)*)cc21

- binder: "ARTKQTARKSTGGKAPR (peptide, UniProt P68431 2-18, looked up, 5-Carboxyfluorescein (5-FAM) on the N-terminus; dimethyl-lysine at 9, Histone H3, residues 1-17, lysine 9 dimethylated; Made on Rink-amide resin, so the C-terminus is probably an amide (surmised); also called H3K9me2; source: synthetic peptide (solid phase synthesis on Rink-amide ChemMatrix resin, C18-HPLC-purified)) [H3(1-17) K9 dimethylated peptide, N-terminus 5-FAM labeled]"
  Kd, nM: 929
- binder: "5FAM-ARTKQTARKSTGGKAPR-NH2 (peptide, UniProt P68431 2-18, looked up, Histone H3, residues 1-17, lysine 9 unmodified; Made on Rink-amide resin, so the C-terminus is probably an amide (surmised); Residues 1-17 are the same in H3.1, H3.2 and H3.3; also called H3K9un; source: synthetic peptide (solid phase synthesis on Rink-amide ChemMatrix resin, C18-HPLC-purified)) [H3(1-17) K9 unmodified peptide, N-terminus 5-FAM labeled]"
  Kd, nM: 1080
- binder: "ARTKQTARKSTGGKAPR (peptide, UniProt P68431 2-18, looked up, 5-Carboxyfluorescein (5-FAM) on the N-terminus; monomethyl-lysine at 9, Histone H3, residues 1-17, lysine 9 monomethylated; Made on Rink-amide resin, so the C-terminus is probably an amide (surmised); also called H3K9me1; source: synthetic peptide (solid phase synthesis on Rink-amide ChemMatrix resin, C18-HPLC-purified)) [H3(1-17) K9 monomethylated peptide, N-terminus 5-FAM labeled]"
  Kd, nM: 694
